target: recombinant tick kinin receptor (BMLK3) (Rhipicephalus microplus, UniProt Q9NHA4); assay: Dose-response dual-addition calcium fluorescence assay on BMLK3 cells; format: cell-based; details: summary of 36 validated antagonist hits; BMLK3 cells; read-out: BMLK3 IC50
Sequence (Q9NHA4 entry or part of it): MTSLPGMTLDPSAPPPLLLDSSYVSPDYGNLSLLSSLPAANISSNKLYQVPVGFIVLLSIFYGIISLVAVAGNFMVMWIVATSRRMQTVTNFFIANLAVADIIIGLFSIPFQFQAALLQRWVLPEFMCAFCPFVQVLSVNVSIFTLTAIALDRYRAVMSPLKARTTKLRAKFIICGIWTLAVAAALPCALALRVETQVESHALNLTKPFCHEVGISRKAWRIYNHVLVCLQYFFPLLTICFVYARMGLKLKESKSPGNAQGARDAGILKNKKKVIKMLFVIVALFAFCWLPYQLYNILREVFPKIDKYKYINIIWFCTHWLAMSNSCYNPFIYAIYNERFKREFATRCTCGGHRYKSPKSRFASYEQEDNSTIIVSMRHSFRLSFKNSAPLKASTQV
observable: pIC50
The meaning of pIC50 here: minus log10 of the concentration in molar units.

compound="Cc1ccc(S(=O)(=O)NN2C(=O)C(=Cc3ccc(C(=O)O)cc3)SC2=S)cc1 [SACC-0412064]" reported_value=6.93
compound="CCCC[n+]1c(/C=C2/C=CN(CC)c3ccc(C)cc32)ccc2ccccc21 [SACC-0048555]" reported_value=5.82
compound="CCN1C=C/C(=C\\C=C\\c2cc[n+](CC)c3ccccc23)c2ccccc21 [SACC-0054132]" reported_value=5.43

Data request: Read the entry Cc1ccc(S(=O)(=O)Nc2ccc3nc(N)sc3c2)cc1 [SACC-0034373] and write its reported pIC50.
Data returned: 5.21

* * *

Reported pEC50 values are given for each entry in this list.
target: recombinant tick kinin receptor (BMLK3) (Rhipicephalus microplus, UniProt Q9NHA4); test: Dose-response dual-addition calcium fluorescence assay on BMLK3 cells; type: cell-based; details: summary of 36 validated antagonist hits; BMLK3 cells; read-out: BMLK3 EC50
The meaning of pEC50 here: minus log10 of the concentration in molar units.

Known pEC50 results, listed for orientation:
molecule=Cc1ccc(S(=O)(=O)Nc2ccc3nc(N)sc3c2)cc1 reported_value=5.71
molecule="O=C1C=CC(Nc2ccc([N+](=O)[O-])cc2)C1Nc1ccc([N+](=O)[O-])cc1 (centres unmarked)" reported_value=6.75

Data request: Read the entry Cc1ccc(-c2csc3ncnc(NCc4ccco4)c23)cc1 and write its reported pEC50.
Data returned: 6.91

Data request: Read the entry Cc1ccc(S(=O)(=O)NN2C(=O)C(=Cc3ccc(C(=O)O)cc3)SC2=S)cc1 and write its reported pEC50.
Data returned: 4.89

* * *

biological target: recombinant tick kinin receptor (BMLK3) (Rhipicephalus microplus); assay: Dose-response dual-addition calcium fluorescence assay on BMLK3 cells; type: cell-based; details: second addition Rhimi-K-1 1 μmol L^−1; read-out: BMLK3 IC50
observable: IC50

compound=CCNc1nc(NCc2ccco2)c2ccccc2n1 observable=IC50 reported_value="10.3 µM"

Data request: Read the entry COc1ccccc1-n1nnnc1S[C@@H](C)C(=O)c1ccc2c(c1)CCN2C(C)=O and write its reported IC50.
Data returned: > 25 µM

Data request: Read the entry COC(=O)c1cc2c(s1)Oc1cc(C(F)(F)F)ccc1C(=S)N2 and write its reported IC50.
Data returned: < 0.0285 µM

Data request: Read the entry CCCc1cc(-c2cc(O)n3nc(C)c(CC)c3n2)no1 and write its reported IC50.
Data returned: > 25 µM

Data request: Read the entry C=CCn1cnnc1SCC1CC1(Cl)Cl (stereo not drawn) and write its reported IC50.
Data returned: 0.242 µM

* * *

molecular target: recombinant tick kinin receptor (BMLK3) (Rhipicephalus microplus, UniProt Q9NHA4); test: Dose-response dual-addition calcium fluorescence assay on BMLK3 cells; format: cell-based; conditions: summary of 36 validated antagonist hits; BMLK3 cells; read-out: BMLK3 EC50
Friendly reminder: EC50 below 7 µM is fulfilled, at or above is not fulfilled.

compound="Cc1ccc(S(=O)(=O)NN2C(=O)C(=Cc3ccc(F)cc3)SC2=S)cc1 [SACC-0412063]" category="not fulfilled"
compound="O=C(O)COc1ccc(Br)cc1/C=N/Nc1cccc2cccnc12 [SACC-0126875]" category=fulfilled
compound="CCCC[n+]1c(/C=C2/C=CN(CC)c3ccc(C)cc32)ccc2ccccc21 [SACC-0048555]" category="not fulfilled"
compound="C/C(CCC(C)C)=N\\N=C(/S)NCc1ccccc1 [SACC-0018618]" category="not fulfilled"
compound="O=C1C(=Cc2ccccc2)SC(=S)N1NS(=O)(=O)c1ccccc1 [SACC-0412060]" category="not fulfilled"
compound="Cc1ccc(C=C2SC(=S)N(NS(=O)(=O)c3ccc(C)cc3)C2=O)cc1 [SACC-0412061]" category=fulfilled

Data request: Is it true that EC50 reported for C[C@@](O)(C#Cc1ccccc1)c1ccc(N2CCCCC2)c(F)c1 [SACC-0006795] is less than 7 µM?
Data returned: not fulfilled

Data request: Is it true that EC50 reported for CSc1nc2ccc(NS(=O)(=O)c3ccc(Cl)s3)cc2s1 [SACC-0099442] is less than 7 µM?
Data returned: fulfilled
